Hello, the source for this data is ChEMBL document CHEMBL1158554, in case you need it.

Test system: AGS
Assay: Growth inhibition of human AGS cells at 40 uM after 48 hrs by MTT assay
Type: functional, cell-based
Active and inactive are the calls of the source. The rule behind the calls is not given here.
Test readout: growth inhibition (GI)

# Chemical smiles, Test readout, Result
measured = [
    ("Nc1ccc(-c2cc(-c3ccc(C(F)(F)F)cc3)n[nH]2)cc1", "growth inhibition (GI)", "inactive"),
    ("COc1ccccc1-c1cc(-c2ccc([N+](=O)[O-])cc2)[nH]n1", "growth inhibition (GI)", "inactive"),
    ("COc1cccc(-c2cc(-c3ccc(N)cc3)[nH]n2)c1", "growth inhibition (GI)", "inactive"),
    ("O=[N+]([O-])c1ccc(-c2cc(-c3ccccc3)n[nH]2)cc1", "growth inhibition (GI)", "inactive"),
    ("COc1ccccc1-c1cc(-c2ccc(N)cc2)[nH]n1", "growth inhibition (GI)", "inactive"),
]

Ask: Sample COc1cccc(-c2cc(-c3ccc([N+](=O)[O-])cc3)[nH]n2)c1 — what was its growth inhibition (GI)?
Result: inactive

Ask: # input compound: O=[N+]([O-])c1ccc(-c2cc(-c3ccc(C(F)(F)F)cc3)n[nH]2)cc1 ; wanted: its growth inhibition (GI)
Result: inactive

Ask: Look up growth inhibition (GI): COc1ccc(-c2cc(-c3ccc([N+](=O)[O-])cc3)[nH]n2)cc1OC
Result: inactive

Ask: Could you share which growth inhibition (GI) value was measured for COc1ccccc1-c1cc(-c2ccccc2-c2ccccc2)n[nH]1 ?
Result: inactive

Ask: Would you kindly share the measured growth inhibition (GI) for COc1ccc(-c2cc(-c3ccc(N)cc3)[nH]n2)cc1 ?
Result: inactive

Ask: # lookup: growth inhibition (GI) of COc1ccc(-c2cc(-c3ccc(N)cc3)[nH]n2)cc1OC
Result: inactive

Ask: Param item = COc1ccc(-c2cc(-c3ccc(Br)cc3)n[nH]2)cc1 ; retrieve measured growth inhibition (GI).
Result: inactive

Ask: Given COc1ccc(-c2cc(-c3ccc(Cl)cc3)n[nH]2)cc1 , state its recorded growth inhibition (GI).
Result: inactive

Ask: Give the measured growth inhibition (GI) of COc1ccc(-c2cc(-c3ccc(F)cc3)n[nH]2)cc1 .
Result: inactive

Ask: Data request, read-out growth inhibition (GI), for CN(C)c1ccc(-c2cc(-c3ccc(C(F)(F)F)cc3)n[nH]2)cc1
Result: inactive

Ask: What does the record list as growth inhibition (GI) for Nc1ccc(-c2cc(-c3ccccc3)n[nH]2)cc1 ?
Result: inactive

Ask: # growth inhibition (GI) lookup, item COc1ccc(-c2cc(-c3ccc([N+](=O)[O-])cc3)[nH]n2)cc1
Result: inactive
